Tested on: Aspergillus niger
Assay: Fungal evaluation: growth prevention of Aspergillus niger in mineral salts-glucose medium, synergism by the method of Kull
Assay type: cell-based
Conditions: named compound B alone; complete prevention of growth of Aspergillus niger for seven days
Quick reference: Qb = lowest concentration of compound B acting alone which produced an end point of the listed items.

Completed entries (count: 2):
CCCCCCCCn1sccc1=O [2-N-octyl-4-isothiazolin-3-one]	>0.175 ppm active ingredient
N#CSCSC#N [MTC, Methylene-bis(thiocyanate)]	>0.7 ppm active ingredient

Now for a further compound.
Quick note, Qb = lowest concentration of compound B acting alone which produced an end point for O=C(CBr)c1ccc(O)cc1 [BHAP, 2-bromo-4′-hydroxyacetophenone] landed at >8.0 ppm active ingredient
